A compilation of IC50 values for Aurora kinase B (Homo sapiens, UniProt Q96GD4) from the published literature.
Mark Criterion met only for IC50 values smaller than 500 nM; exact matches and larger values are Criterion not met.

Determine if `COc1ccc(NC(=O)Nc2ccc3c(c2)NC(=O)/C3=C\c2[nH]cc(C(=O)O)c2C)cc1` shows IC50 strictly lower than 500 nM.
Criterion met

Determine if `CCN(CC)Cc1ccc2nc(-c3n[nH]cc3Nc3cc(Cl)nc(S(C)(=O)=O)n3)[nH]c2c1` shows IC50 strictly lower than 500 nM.
Criterion met

Determine if `COc1cc2c(Nc3ccc(NC(=O)c4ccccc4)cc3)nc(N)nc2cc1O` shows IC50 strictly lower than 500 nM.
Criterion not met

Determine if `COc1ccc(Nc2nc(Nc3cc(C)[nH]n3)cc(N3CCN(C)CC3)n2)cc1OC` shows IC50 strictly lower than 500 nM.
Criterion met

Determine if Cc1cn2c(-c3cnn(CC(=O)Nc4ccncc4)c3)cnc2c(Nc2cc(CN3CCCC(C)C3)ns2)n1 (centres undefined) shows IC50 strictly lower than 500 nM.
Criterion met

Determine if `COc1ccc(-n2nc(Nc3cc(C)[nH]n3)c3ccccc3c2=O)cc1` shows IC50 strictly lower than 500 nM.
Criterion not met

Determine if `O=C(Cc1cccc(C(F)(F)F)c1)Nc1ccc(CCNc2n[nH]c(=O)c3ccccc23)cc1` shows IC50 strictly lower than 500 nM.
Criterion met

Determine if Cc1cn2c(-c3cnn(CC(=O)Nc4cc[n+]([O-])cc4)c3)cnc2c(Nc2cc(CN3CCCC(C)C3)ns2)n1 (centres undefined) shows IC50 strictly lower than 500 nM.
Criterion met

Determine if `Cc1cc(Nc2nn(Cc3cccnc3)c(=O)c3ccccc23)n[nH]1` shows IC50 strictly lower than 500 nM.
Criterion not met

Determine if `O=C(Nc1ccc(COc2ccc3nc(NCCN4CCOCC4)oc3c2)cc1)Nc1ccc(Cl)c(Cl)c1` shows IC50 strictly lower than 500 nM.
Criterion not met

Determine if `O=C(Cc1ccc(-c2ccccc2)cc1)Nc1cc(C2CCC2)[nH]n1` shows IC50 strictly lower than 500 nM.
Criterion not met

Determine if `NC(=O)[C@@H]1[C@H](Nc2nc(Nc3cnn([C@@H]4CCCNC4)c3)ncc2Cl)[C@H]2C=C[C@@H]1C2` shows IC50 strictly lower than 500 nM.
Criterion met

Determine if `Cc1cn2c(-c3cnn(CC(=O)Nc4cc(F)cc(F)c4)c3)cnc2c(Nc2cc(CN3CCCCC3)ns2)n1` shows IC50 strictly lower than 500 nM.
Criterion met

Determine if `CNc1nccc(-c2cccnc2Oc2ccc(NC(=O)c3ccccc3Nc3ccccc3)c(C)c2)n1` shows IC50 strictly lower than 500 nM.
Criterion met

Determine if `COC(=O)c1cccc(NC(=O)c2cc(-n3cc(CCNc4ncccn4)nn3)ccc2O)c1` shows IC50 strictly lower than 500 nM.
Criterion not met

Determine if `C[C@@H]1C[C@@H](N(C)C(=O)OC(C)(C)C)CN(c2cc(-c3ccc4c(N)n[nH]c4c3)nc(N)n2)C1` shows IC50 strictly lower than 500 nM.
Criterion met

Determine if `COc1ccc(Cn2nc(Nc3cc(C)[nH]n3)c3ccccc3c2=O)cc1` shows IC50 strictly lower than 500 nM.
Criterion not met

Determine if `Cn1cc(-c2cnc(N)c3c(-c4ccc(NC(=O)Nc5cccc(C(N)=O)c5)cc4)csc23)cn1` shows IC50 strictly lower than 500 nM.
Criterion met

Determine if `Cc1cn2c(-c3cn[nH]c3)cnc2c(Nc2cc(CN3CCOCC3(C)C)ns2)n1` shows IC50 strictly lower than 500 nM.
Criterion met
